tested on: Mycobacterium tuberculosis; assay: Antimycobacterial activity against Mycobacterium tuberculosis H37Rv after 6 days by MTT assay; assay type: functional, organism-based; settings: 144 h
Quantity: pIC50
# pIC50 = -log10(concentration in molar units)

These solved cases illustrate the format of a correct answer.
• O=C(O)c1cn(C2CC2)c2cc(N3CCNCC3)c(F)cc2c1=O = 6.22
• N=C(N)NCCc1ccc(OCc2cc(COc3ccc(CCNC(=N)N)cc3)c(COc3ccc(CCNC(=N)N)cc3)cc2COc2ccc(CCNC(=N)N)cc2)cc1.O=C(O)C(F)(F)F = 6.30
• N=C(N)NCCc1ccc(OCc2ccccc2)cc1 = 5.23
• N=C(N)NCCc1ccc(OCc2c(COc3ccc(CCNC(=N)N)cc3)c(COc3ccc(CCNC(=N)N)cc3)c(COc3ccc(CCNC(=N)N)cc3)c(COc3ccc(CCNC(=N)N)cc3)c2COc2ccc(CCNC(=N)N)cc2)cc1 = 5.42
• N=C(N)NCCc1ccc(OCc2cc(COc3ccc(CCNC(=N)N)cc3)cc(COc3ccc(CCNC(=N)N)cc3)c2)cc1.O=C(O)C(F)(F)F = 6.46

Q: Recorded pIC50 for `N=C(N)NCCc1ccc(OCc2cccc(COc3ccc(CCNC(=N)N)cc3)c2)cc1.O=C(O)C(F)(F)F` , please?
Ans: 6.15

Q: Recorded pIC50 for `N=C(N)NCCc1ccc(OCc2ccc(COc3ccc(CCNC(=N)N)cc3)cc2)cc1.O=C(O)C(F)(F)F` , please?
Ans: 6.10

Q: Recorded pIC50 for `NNC(=O)c1ccncc1` , please?
Ans: 6.66

Q: Recorded pIC50 for `N=C(N)NCCc1ccc(OCc2ccccc2COc2ccc(CCNC(=N)N)cc2)cc1.O=C(O)C(F)(F)F` , please?
Ans: 5.82
